Reported IC50 values are given for each entry in this list.
system: CDK2/Cyclin E1 (Homo sapiens, UniProt P24941)
measurement description: CDK2/Cyclin E1 Caliper LabChip EZ Reader mobility shift assay
Format: biochemical
Design: purchased Eurofins 14-475
experimental setup: read-out: Caliper Assay (CDK2/CCNE1): IC50

INSERT INTO results (compound, readout_kind, value_observed) VALUES
  ('CCC(CC)C(=O)N1CC2(CN(C(=O)c3cnn(Cc4ccccc4)c3)C[C@@H]2C(=O)N[C@H](C(=O)NC)[C@@H](C)OCc2ccccc2)C1 [I-74B]', 'IC50', '> 10 µM'),
  ('C[C@@H](OCC1CCCCC1)[C@H](NC(=O)[C@H]1CN(C(=O)c2cn[nH]c2)CC12CN(C(=O)[C@H]1CC1(C)C)C2)C(=O)N1CCCCC1 [I-151B]', 'IC50', '1 to 10 µM'),
  ('C[C@@H](OCC12CCC(CC1)OC2)[C@H](NC(=O)[C@@H]1CN(C(=O)c2cncs2)CC12CN(C(=O)[C@H]1CC1(C)C)C2)C(=O)N1CCC[C@H](COC(F)F)C1 [I-461]', 'IC50', '≤ 0.01 µM');

Query block: Fill blank: measured IC50 of the compound CNC(=O)[C@@H](NC(=O)[C@H]1CN(Cc2cnn(C)c2)CC12CN(C(=O)[C@H]1CC1(C)C)C2)[C@@H](C)OCc1ccccc1 [I-47B] is ____.
Result block: > 10 µM

###

system: CDK2/Cyclin E1 (Homo sapiens)
measurement description: CDK2/Cyclin E1 Caliper LabChip EZ Reader mobility shift assay
Assay type: biochemical
Design: purchased Eurofins 14-475
experimental setup: read-out: Caliper Assay (CDK2/CCNE1): IC50
Reported IC50 values are given for each entry in this list.

Please review the entries below; each comes with its answer.
INSERT INTO assay_data (molecule, value_observed) VALUES
  ('CNC(=O)[C@@H](NC(=O)[C@H]1CN(C(=O)c2cnn(Cc3ccc(F)cc3)c2)CC12CN(C(=O)[C@H]1CC1(C)C)C2)[C@@H](C)OCC1CCC(F)(F)CC1 [I-167]', '100 to 1000 nM'),
  ('CO[C@H]1COCC[C@@H]1NC(=O)[C@H]1CN(C(=O)c2cnn(Cc3ccccc3)c2)CC12CN(C(=O)[C@H]1CC1(C)C)C2 [I-148B]', '> 10000 nM'),
  ('Cc1ccc(CNC(=O)[C@@H]2CN(C(=O)c3cnn(Cc4ccncc4)c3)CC23CN(C(=O)[C@H]2CC2(C)C)C3)nn1 [I-418]', '> 10000 nM'),
  ('COC[C@H]1CCCN(C(=O)[C@@H](NC(=O)[C@@H]2CN(C(=O)c3cncs3)CC23CN(C(=O)[C@H]2CC2(C)C)C3)[C@@H](C)OCC2CCCCC2)C1 [I-196A]', '≤ 10 nM'),
  ('CN(C(=O)[C@@H]1CCCN(C(=O)[C@@H]2CN(C(=O)c3cnn(Cc4ccccc4)c3)CC23CN(C(=O)[C@H]2CC2(C)C)C3)C1)C1CCCCC1 [I-181]', '1000 to 10000 nM'),
  ('CC1(C)C[C@@H]1C(=O)N1CC2(CN(C(=O)c3cnn(Cc4ccccc4)c3)C[C@H]2C(=O)NCc2ccc(C(F)(F)F)nn2)C1 [I-392]', '1000 to 10000 nM');

Let's switch to this molecule now.
Query block: Fill in the blank: the reported IC50 of CC1(C)C[C@@H]1C(=O)N1CC2(CN(C(=O)c3cnn(Cc4ccccc4)c3)C[C@@H]2C(=O)Nc2ccc(Cc3ccccc3)nc2)C1 [I-168] is ____.
Result block: 1000 to 10000 nM

###

system: CDK2/Cyclin E1 (Homo sapiens)
measurement description: CDK2/Cyclin E1 Caliper LabChip EZ Reader mobility shift assay
Type: biochemical
Design: purchased Eurofins 14-475
experimental setup: read-out: Caliper Assay (CDK2/CCNE1): IC50
Experimental: Inhibition of CDK2/Cyclin E1 activity in the presence of compounds of the present disclosure was evaluated using a Caliper LabChip® EZ Reader mobility shift assay. […] The peptide substrate and product were measured, and the conversion ratio was used to determine the inhibition (as % activity and IC50 values) of CDK2/Cyclin E1. […]
readout kind: IC50

INSERT INTO measurements (compound, readout_kind, value_observed) VALUES
  ('CNC(=O)[C@@H](NC(=O)[C@H]1CN(C(=O)c2cnn(Cc3ccccc3)c2)CC12CN(C(=O)[C@H]1CC1(C)C)C2)[C@@H](C)OCC1(C(F)(F)F)CC1 [I-205B]', 'IC50', '1 to 10 µM'),
  ('CNC(=O)[C@@H](NC(=O)[C@H]1CN(C(=O)c2cnc(C3CC3)s2)CC12CN(C(=O)[C@H]1CC1(C)C)C2)[C@@H](C)OCC1CCCCC1 [I-178B]', 'IC50', '> 10 µM'),
  ('C[C@@H](OCC1CCCCC1)[C@H](NC(=O)[C@@H]1CN(C(=O)c2cnn(Cc3ccccc3)c2)CC12CN(C(=O)[C@H]1CC1(C)C)C2)C(=O)NCC1(C(=O)O)CC1 [I-474]', 'IC50', '≤ 0.01 µM'),
  ('COCCNC(=O)[C@H]1CN(C(=O)c2cnn(Cc3ccccc3)c2)CC12CN(C(=O)[C@H]1CC1(C)C)C2 [I-122B]', 'IC50', '> 10 µM'),
  ('CC(C)O[C@H]1C[C@H](NC(=O)[C@@H]2CN(C(=O)c3cnn(Cc4ccccc4)c3)CC23CN(C(=O)[C@H]2CC2(C)C)C3)C1 [I-233]', 'IC50', '> 10 µM'),
  ('C[C@@H](NC(=O)[C@@H]1CN(C(=O)c2cnn(Cc3ccccc3)c2)CC12CN(C(=O)[C@H]1CC1(C)C)C2)c1cccc(F)c1 [I-128A]', 'IC50', '> 10 µM'),
  ('CNC(=O)[C@@H](NC(=O)C1CN(Cc2n[nH]c3ccccc23)CC12CN(C(=O)[C@H]1CC1(C)C)C2)[C@@H](C)OCc1ccccc1 (stereo partly shown) [I-159]', 'IC50', '> 10 µM'),
  ('CNC(=O)[C@@H](NC(=O)[C@H]1CN(C(=O)c2cnn(CC3CCN(C(C)=O)CC3)c2)CC12CN(C(=O)[C@H]1CC1(C)C)C2)[C@@H](C)OCc1ccccc1 [I-17B]', 'IC50', '> 10 µM');

Query block: Given CCCC(=O)N1CC2(C1)CN(C(=O)c1cnn(Cc3ccccc3)c1)C[C@H]2C(=O)N[C@H](C(=O)NC)[C@@H](C)OCc1ccccc1 [I-60A] , state its recorded IC50.
Result block: 1 to 10 µM

Query block: Endpoint output: IC50 of CNC(=O)[C@@H](NC(=O)[C@@H]1CN(C(=O)c2cnn(Cc3ccccc3)c2)CC12CN(C(=O)C1(C)CC1)C2)[C@@H](C)OCc1ccccc1 [I-67A] . Value?
Result block: 0.1 to 1 µM

Query block: Requested field: IC50. Item: Cc1ccc(C(C)NC(=O)[C@@H]2CN(C(=O)c3cnn(Cc4ccccc4)c3)CC23CN(C(=O)[C@H]2CC2(C)C)C3)nn1 (stereo partly shown) [I-366]
Result block: 1 to 10 µM

Query block: I am curious: what IC50 value has been reported for CN(C)C(=O)C(NC(=O)[C@@H]1CN(C(=O)c2cncs2)CC12CN(C(=O)C(C)(C)C1CC1)C2)c1cccc(C2CCOCC2)n1 (stereo partly shown) [I-340] ?
Result block: 1 to 10 µM

Query block: Look at this compound and give its reported IC50. CC1(C)C[C@@H]1C(=O)N1CC2(CN(C(=O)c3cncs3)C[C@@H]2C(=O)N[C@@H](COCC2CCCCC2)C(=O)N2CCCCC2)C1 [I-293]
Result block: 1 to 10 µM

###

Measured IC50 of individual entries
system: CDK2/Cyclin E1 (Homo sapiens)
measurement description: CDK2/Cyclin E1 Caliper LabChip EZ Reader mobility shift assay
Format: biochemical
Parameters: purchased Eurofins 14-475
experimental setup: read-out: Caliper Assay (CDK2/CCNE1): IC50

Field: example entries. Status: answers known.
INSERT INTO measurements (compound, value_observed) VALUES
  ('CNC(=O)C(NC(=O)[C@@H]1CN(C(=O)c2cncs2)CC12CN(C(=O)[C@H]1CC1(C)C)C2)c1cccc(N2CC3(COC3)C2)n1 (stereo partly drawn) [I-427]', '1000 to 10000 nM'),
  ('CNC(=O)[C@@H](NC(=O)[C@H]1CN(C(=O)c2cnn(Cc3ccccc3)c2)CC12CN(C(=O)[C@H]1CC1(C)C)C2)[C@@H](C)OCC1CCOCC1 [I-119B]', '1000 to 10000 nM'),
  ('CNC(=O)[C@@H](NC(=O)[C@@H]1CN(C(=O)c2cnc(CC3CC3)s2)CC12CN(C(=O)[C@H]1CC1(C)C)C2)[C@@H](C)OCC1CCCCC1 [I-177A]', '100 to 1000 nM'),
  ('CNC(=O)[C@@H](NC(=O)[C@@H]1CN(C(=O)c2scnc2C)CC12CN(C(=O)[C@H]1CC1(C)C)C2)[C@@H](C)OCC1CCCCC1 [I-160A]', '10 to 100 nM'),
  ('CNC(=O)[C@@H](NC(=O)[C@H]1CN(C(=O)c2cnn(Cc3ccccc3)c2)CC12CN(C(=O)[C@H]1CC1(C)C)C2)C(C)(C)SCc1ccccc1 [I-171B]', '> 10000 nM'),
  ('CNC(=O)[C@@H](NC(=O)[C@@H]1CN(C(=O)c2cnn(Cc3ccccc3)c2)CC12CN(C(=O)C1(CCF)CC1)C2)[C@@H](C)OCc1ccccc1 [I-117A]', '1000 to 10000 nM'),
  ('CNC(=O)[C@@H](NC(=O)[C@H]1CN(C(=O)c2cnn(Cc3ccccc3)c2)CC12CN(C(=O)C1C(C)(C)C1(C)C)C2)[C@@H](C)OCc1ccccc1 [I-89B]', '> 10000 nM'),
  ('CC1(C)C[C@@H]1C(=O)N1CC2(CN(C(=O)c3cnn(Cc4ccccc4)c3)C[C@@H]2C(=O)NC2CCN(C(=O)c3ccccc3)CC2)C1 [I-61B]', '> 10000 nM');

Query block: Suppose we examine the compound C[C@@H](OCC1CCOCC1)[C@H](NC(=O)[C@@H]1CN(C(=O)c2cncs2)CC12CN(C(=O)[C@H]1CC1(C)C)C2)C(=O)N1CCC(F)(F)CC1 [I-288] ; what IC50 value has been reported?
Result block: 10 to 100 nM

Query block: Endpoint output: IC50 of CNC(=O)[C@@H](NC(=O)[C@H]1CN(C(=O)c2cnn(Cc3ccccc3)c2)CC12CN(C(=O)C1(C)CC1)C2)[C@@H](C)OCc1ccccc1 [I-67B] . Value?
Result block: > 10000 nM

Query block: Param item = C[C@@H](OCC1CCC(F)(F)CC1)[C@H](NC(=O)[C@@H]1CN(C(=O)c2cnn(Cc3ccc(F)cc3)c2)CC12CN(C(=O)[C@H]1CC1(C)C)C2)C(=O)N1CCC(F)(F)CC1 [I-164A] ; retrieve measured IC50.
Result block: ≤ 10 nM

Query block: Data request, read-out IC50, for CO[C@H](C)[C@H](NC(=O)[C@@H]1CN(C(=O)c2cnn(C)c2)CC12CN(C(=O)[C@H]1CC1(C)C)C2)C(=O)N1CCCCC1 [I-303]
Result block: > 10000 nM

Query block: For C[C@@H](OCC1CCCCC1)[C@H](NC(=O)[C@@H]1CN(C(=O)c2ccns2)CC12CN(C(=O)[C@H]1CC1(C)C)C2)C(=O)N1CCCCC1 [I-217] , what is its reported IC50?
Result block: ≤ 10 nM

Query block: Give the measured IC50 of CNC(=O)[C@@H](NC(=O)[C@H]1CN(C(=O)c2cnn(Cc3ccccc3)c2)CC12CN(C(=O)[C@H]1CC1(C)C)C2)[C@@H](C)OCC1CCCCCC1 [I-166B] .
Result block: 100 to 1000 nM

Query block: Quick check: IC50 of CC1(C)C[C@@H]1C(=O)N1CC2(CN(C(=O)c3cncs3)C[C@H]2C(=O)NC(CO)c2cccc(C3CCC(F)(F)CC3)n2)C1 (stereo partly drawn) [I-419] ?
Result block: 100 to 1000 nM
